- System Tested: IDO1 (A172+IFNg cells, high IDO expressing cells) (Homo sapiens)
- Construct: A172+IFNg cells (high IDO expressing cells); endogenous in cells
- Sequence (P14902 whole entry): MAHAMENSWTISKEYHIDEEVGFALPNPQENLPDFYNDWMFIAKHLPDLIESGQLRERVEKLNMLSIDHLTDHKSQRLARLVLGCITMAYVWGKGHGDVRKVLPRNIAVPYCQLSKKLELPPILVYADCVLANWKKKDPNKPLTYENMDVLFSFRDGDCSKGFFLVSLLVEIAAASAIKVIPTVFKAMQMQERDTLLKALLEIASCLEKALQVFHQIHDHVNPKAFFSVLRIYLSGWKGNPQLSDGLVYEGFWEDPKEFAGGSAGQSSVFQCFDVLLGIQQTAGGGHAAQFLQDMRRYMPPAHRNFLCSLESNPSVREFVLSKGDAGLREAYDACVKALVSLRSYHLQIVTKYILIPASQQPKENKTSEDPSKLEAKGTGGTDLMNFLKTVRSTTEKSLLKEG
- Test Method Notes: NFK GreenScreen cell assay, inhibition of IDO in A172+IFNg cells
- Experimental Context: read-out: IDO cell Fluor EC50
pEC50: −log10 of the molar value.
# pEC50 per entry
Result Type: pEC50

>  <Molecule>
CC(C)(C)OC(=O)N[C@H]1CC[C@@]2(CC1)C[C@@H]([C@H]1c3ccccc3-c3cncn31)[C@@H]2O (single isomer, unassigned) [Example 24b]

>  <Result Type>
pEC50

>  <Numeric Readout>
5.89

$$$$
>  <Molecule>
Cn1ccc(S(=O)(=O)N2CCC3(CC2)CC(C2c4ccccc4-c4cncn42)C3O)n1 (centres unmarked) [compound 44]

>  <Result Type>
pEC50

>  <Numeric Readout>
7.09

$$$$
>  <Molecule>
NS(=O)(=O)N1CCC2(CC1)C[C@H]([C@@H]1c3ccccc3-c3cncn31)[C@@H]2O (single isomer, unassigned) [Example 11a]

>  <Result Type>
pEC50

>  <Numeric Readout>
4.70

$$$$
>  <Molecule>
O=S(=O)(CF)N1CCC2(CC1)C[C@H]([C@@H]1c3ccccc3-c3cncn31)[C@@H]2O (single isomer, unassigned) [Example 8a]

>  <Result Type>
pEC50

>  <Numeric Readout>
4.77

$$$$
>  <Molecule>
CC(C)(C)OC(=O)N1CC2(CC[C@@H]([C@@H]3c4ccccc4-c4cncn43)[C@@H]2O)C1 (single isomer, unassigned) [Example 3c]

>  <Result Type>
pEC50

>  <Numeric Readout>
4.89

$$$$
>  <Molecule>
O=S(=O)(C1COC1)N1CCC2(CC1)C[C@H](C1c3ccccc3-c3cncn31)[C@@H]2O (stereo in doubt) [Example 23b]

>  <Result Type>
pEC50

>  <Numeric Readout>
5.60

$$$$
>  <Molecule>
CCC(=O)N1CCC2(CC1)CC(C1c3ccccc3-c3cncn31)C2O (centres unmarked) [compound 49]

>  <Result Type>
pEC50

>  <Numeric Readout>
6.25

$$$$
>  <Molecule>
CC(C)(C)OC(=O)N[C@H]1CC[C@@]2(CC1)C[C@H](C1c3ccccc3-c3cncn31)[C@H]2O (some centres unmarked) [Example 24k]

>  <Result Type>
pEC50

>  <Numeric Readout>
5.30

$$$$
>  <Molecule>
N#CCS(=O)(=O)N1CCC2(CC1)C[C@@H]([C@H]1c3ccccc3-c3cncn31)[C@H]2O [Example 21b]

>  <Result Type>
pEC50

>  <Numeric Readout>
7.12

$$$$
>  <Molecule>
CC(C)(C)OC(=O)N[C@H]1CC[C@]2(CC1)C[C@@H]([C@@H]1c3ccccc3-c3cncn31)[C@@H]2O (single isomer, unassigned) [Example 24h]

>  <Result Type>
pEC50

>  <Numeric Readout>
5.27

$$$$
>  <Molecule>
CC(=O)N1CC2(CC[C@H]([C@@H]3c4ccccc4-c4cncn43)[C@H]2O)C1 (single isomer, unassigned) [Example 17]

>  <Result Type>
pEC50

>  <Numeric Readout>
5.89

$$$$
>  <Molecule>
CC(=O)N1CCC(C(=O)N2CCC3(CC2)C[C@@H]([C@H]2c4ccccc4-c4cncn42)[C@H]3O)CC1 [compound 68]

>  <Result Type>
pEC50

>  <Numeric Readout>
5.47

$$$$
>  <Molecule>
CC(C)(C)OC(=O)N1CC2(CC[C@H]([C@@H]3c4ccccc4-c4cncn43)[C@@H]2O)C1 (single isomer, unassigned) [Example 3b]

>  <Result Type>
pEC50

>  <Numeric Readout>
5.96

$$$$
>  <Molecule>
CC(C)(C)OC(=O)N1CC2CCC(C1)C21C[C@H]([C@@H]2c3ccccc3-c3cncn32)[C@@H]1O (relative stereo) [Example 22a]

>  <Result Type>
pEC50

>  <Numeric Readout>
5.68

$$$$
>  <Molecule>
O=C(C1CCC1)N1CCC2(CC1)C[C@@H]([C@H]1c3ccccc3-c3cncn31)[C@H]2O [compound 48]

>  <Result Type>
pEC50

>  <Numeric Readout>
6.46

$$$$
>  <Molecule>
CC(C)(C)OC(=O)N1[C@@H]2CC[C@H]1C[C@@]1(C[C@@H]([C@@H]3c4ccccc4-c4cncn43)[C@H]1O)C2 (single isomer, unassigned) [Example 12d]

>  <Result Type>
pEC50

>  <Numeric Readout>
5.37

$$$$
>  <Molecule>
CS(=O)(=O)N1CCC2(CC1)C[C@H]([C@H]1c3ccccc3-c3cncn31)[C@H]2O (single isomer, unassigned) [Example 6g]

>  <Result Type>
pEC50

>  <Numeric Readout>
5.33

$$$$
>  <Molecule>
O=S(=O)(C1COC1)N1CCC2(CC1)C[C@@H]([C@H]1c3ccccc3-c3cncn31)[C@H]2O [Example 23c]

>  <Result Type>
pEC50

>  <Numeric Readout>
7.30

$$$$
>  <Molecule>
CS(=O)(=O)N1CC2CCC(C1)C21CC(C2c3ccccc3-c3cncn32)C1O (single isomer, unassigned) [compound 70]

>  <Result Type>
pEC50

>  <Numeric Readout>
6.82

$$$$
>  <Molecule>
CC(C)(C)OC(=O)N1CC2CCC(C1)C21C[C@@H]([C@H]2c3ccccc3-c3cncn32)[C@@H]1O (some centres unmarked) [Example 22h]

>  <Result Type>
pEC50

>  <Numeric Readout>
5.55

$$$$
>  <Molecule>
CS(=O)(=O)N1CC2(CCC(C3c4ccccc4-c4cncn43)C2O)C1 (single isomer, unassigned) [compound 16]

>  <Result Type>
pEC50

>  <Numeric Readout>
6.66

$$$$
>  <Molecule>
O=S1(=O)CCC2(CC[C@H]([C@@H]3c4ccccc4-c4cncn43)[C@@H]2O)CC1 (single isomer, unassigned) [Example 13b]

>  <Result Type>
pEC50

>  <Numeric Readout>
5.14

$$$$
>  <Molecule>
CC(C)(C)OC(=O)N[C@H]1CC[C@@]2(CC1)C[C@@H]([C@H]1c3ccccc3-c3cncn31)[C@H]2O (single isomer, unassigned) [Example 24l]

>  <Result Type>
pEC50

>  <Numeric Readout>
5.72

$$$$
>  <Molecule>
O=S(=O)(C1COC1)N1CCC2(CC1)CC(C1c3ccccc3-c3cncn31)C2O (centres unmarked) [Example 23a]

>  <Result Type>
pEC50

>  <Numeric Readout>
6.82

$$$$
>  <Molecule>
COCCOC(=O)N1CCC2(CC[C@@H]([C@H]3c4ccccc4-c4cncn43)[C@H]2O)CC1 (single isomer, unassigned) [Example 19]

>  <Result Type>
pEC50

>  <Numeric Readout>
7.00

$$$$
>  <Molecule>
CS(=O)(=O)N1CCC2(CC1)C[C@H]([C@H]1c3ccccc3-c3cncn31)[C@@H]2O (single isomer, unassigned) [Example 6f]

>  <Result Type>
pEC50

>  <Numeric Readout>
7.62

$$$$

The origin of these recorded values is patent US11603373B2.
